Molecular target: T1, CytR DBD (Escherichia coli, UniProt P0ACN7 1-67)
T1 sequence: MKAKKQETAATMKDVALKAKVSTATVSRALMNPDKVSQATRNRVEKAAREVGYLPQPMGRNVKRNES
Test: fluorescence anisotropy
MEASURED_PROPERTY: pKd
Answers are plain numbers, as −log10 of the molar value.

Give its pKd value. Item: nonspecific 14 bp (dsDNA) DNA 1: AGCATGCTGGGGAC DNA 2: GTCCCCAGCATGCT
5.24
